Molecular target: human S1P1 receptor (Homo sapiens)
Construct: expressed in transfected cells; host or cells: CHO-K1
Sequence (P21453 whole entry): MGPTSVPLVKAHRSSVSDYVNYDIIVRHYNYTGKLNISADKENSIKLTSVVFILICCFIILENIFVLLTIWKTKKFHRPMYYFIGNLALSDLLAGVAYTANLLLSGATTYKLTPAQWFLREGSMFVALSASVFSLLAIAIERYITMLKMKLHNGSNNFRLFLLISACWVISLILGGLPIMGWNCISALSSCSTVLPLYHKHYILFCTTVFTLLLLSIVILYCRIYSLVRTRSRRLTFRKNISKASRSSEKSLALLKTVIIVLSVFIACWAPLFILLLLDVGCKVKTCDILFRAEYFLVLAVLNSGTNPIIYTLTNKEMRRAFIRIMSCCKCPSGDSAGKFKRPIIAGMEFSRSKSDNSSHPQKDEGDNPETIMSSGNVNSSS
Experiment: Intracellular calcium mobilization induced test, hS1P1 receptors expressing CHO-K1 cells
Format: cell-based
Conditions: Fluo 3, 100% = S1P at 10^-6 M
Recorded measurements of EC50, one per entry
ENDPOINT_NAME: EC50

query_smiles=Cc1cccc(Oc2ccc(CCC[C@@](C)(N)COP(=O)(O)O)c(Cl)c2)c1 endpoint_name=EC50 test_value="< 1 nM"
query_smiles=CCCc1cccc(Oc2ccc(CCC[C@@](C)(N)COP(=O)(O)O)c(Cl)c2)c1 endpoint_name=EC50 test_value="< 1 nM"
query_smiles=C[C@@](N)(CCc1ccc(Oc2cccc(C(F)(F)F)c2)cc1Cl)COP(=O)(O)O endpoint_name=EC50 test_value="< 1 nM"
query_smiles=C[C@@](N)(CCCc1ccc(Sc2cccc(C(F)(F)F)c2)cc1Cl)COP(=O)(O)O endpoint_name=EC50 test_value="< 1 nM"
query_smiles=CCC[C@@](N)(CCCc1ccc(Sc2cccc(C(F)(F)F)c2)cc1Cl)COP(=O)(O)O endpoint_name=EC50 test_value="< 1 nM"
query_smiles=CCc1cccc(Sc2ccc(CC[C@@](C)(N)COP(=O)(O)O)c(Cl)c2)c1 endpoint_name=EC50 test_value="< 1 nM"
query_smiles=C[C@@](N)(CCCc1ccc(Sc2cccc(C(F)F)c2)cc1Cl)COP(=O)(O)O endpoint_name=EC50 test_value="1 to 10 nM"
query_smiles=C[C@@](N)(CCCc1ccc(Sc2cccc(C(F)(F)F)c2)cc1F)COP(=O)(O)O endpoint_name=EC50 test_value="< 1 nM"
query_smiles=C[C@@](N)(CCc1ccc(Sc2cccc(C(F)(F)F)c2)cc1Cl)COP(=O)(O)O endpoint_name=EC50 test_value="< 1 nM"
query_smiles=CCc1cccc(Sc2ccc(CCC[C@@](C)(N)COP(=O)(O)O)c(Cl)c2)c1 endpoint_name=EC50 test_value="< 1 nM"
query_smiles=C[C@@](N)(CCCc1ccc(Oc2cccc(C(F)(F)F)c2)cc1Cl)COP(=O)(O)O endpoint_name=EC50 test_value="< 1 nM"
query_smiles=C[C@@](N)(CCCc1ccc(Sc2cccc(Cl)c2)cc1Cl)COP(=O)(O)O endpoint_name=EC50 test_value="1 to 10 nM"

====

Recorded measurements of pEC50, one per entry
Molecular target: human S1P4 receptor (Homo sapiens)
Sequence (O95977 1-384): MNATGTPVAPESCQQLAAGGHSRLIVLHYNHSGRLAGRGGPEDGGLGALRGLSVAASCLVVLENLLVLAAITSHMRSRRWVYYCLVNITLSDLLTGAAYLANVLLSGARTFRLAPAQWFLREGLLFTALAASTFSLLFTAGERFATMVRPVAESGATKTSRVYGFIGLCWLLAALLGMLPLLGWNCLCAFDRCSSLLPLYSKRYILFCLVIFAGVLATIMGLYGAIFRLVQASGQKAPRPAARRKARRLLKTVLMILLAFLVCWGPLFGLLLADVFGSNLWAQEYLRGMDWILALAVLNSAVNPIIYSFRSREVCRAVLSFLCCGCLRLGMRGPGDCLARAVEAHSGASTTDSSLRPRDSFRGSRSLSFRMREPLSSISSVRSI
Test: Intracellular calcium mobilization induced test, hS1P4 receptors expressing CHO-K1 cells
Settings: Fluo 3, 100% = S1P at 10^-6 M
pEC50: −log10 of the molar value.
ENDPOINT_NAME: pEC50

query_smiles=C[C@@](N)(CCCc1ccc(Oc2cccc(C(F)(F)F)c2)cc1Cl)COP(=O)(O)O test_value="8.00 to 9.00"
query_smiles=C[C@@](N)(CCCc1ccc(Sc2cccc(C(F)F)c2)cc1Cl)COP(=O)(O)O test_value="8.00 to 9.00"
query_smiles=C[C@@](N)(CCCc1ccc(Sc2cccc(Cl)c2)cc1Cl)COP(=O)(O)O test_value="> 9.00"
query_smiles=C[C@@](N)(CCc1ccc(Oc2cccc(C(F)(F)F)c2)cc1Cl)COP(=O)(O)O test_value="8.00 to 9.00"
query_smiles=CCC[C@@](N)(CCCc1ccc(Sc2cccc(C(F)(F)F)c2)cc1Cl)COP(=O)(O)O test_value="8.00 to 9.00"
query_smiles=CCc1cccc(Sc2ccc(CC[C@@](C)(N)COP(=O)(O)O)c(Cl)c2)c1 test_value="8.00 to 9.00"
query_smiles=CCCc1cccc(Oc2ccc(CCC[C@@](C)(N)COP(=O)(O)O)c(Cl)c2)c1 test_value="8.00 to 9.00"
query_smiles=C[C@@](N)(CCCc1ccc(Sc2cccc(C(F)(F)F)c2)cc1F)COP(=O)(O)O test_value="8.00 to 9.00"
query_smiles=CCc1cccc(Sc2ccc(CCC[C@@](C)(N)COP(=O)(O)O)c(Cl)c2)c1 test_value="8.00 to 9.00"
query_smiles=Cc1cccc(Oc2ccc(CCC[C@@](C)(N)COP(=O)(O)O)c(Cl)c2)c1 test_value="8.00 to 9.00"
query_smiles=C[C@@](N)(CCCc1ccc(Sc2cccc(C(F)(F)F)c2)cc1Cl)COP(=O)(O)O test_value="8.00 to 9.00"
query_smiles=C[C@@](N)(CCc1ccc(Sc2cccc(C(F)(F)F)c2)cc1Cl)COP(=O)(O)O test_value="8.00 to 9.00"
